- SYSTEM_NAME: Corticotropin-releasing factor receptor 2/Corticotropin-releasing factor-binding protein (Homo sapiens, UniProt P24387+Q13324)
- Sequence (Q13324 whole entry): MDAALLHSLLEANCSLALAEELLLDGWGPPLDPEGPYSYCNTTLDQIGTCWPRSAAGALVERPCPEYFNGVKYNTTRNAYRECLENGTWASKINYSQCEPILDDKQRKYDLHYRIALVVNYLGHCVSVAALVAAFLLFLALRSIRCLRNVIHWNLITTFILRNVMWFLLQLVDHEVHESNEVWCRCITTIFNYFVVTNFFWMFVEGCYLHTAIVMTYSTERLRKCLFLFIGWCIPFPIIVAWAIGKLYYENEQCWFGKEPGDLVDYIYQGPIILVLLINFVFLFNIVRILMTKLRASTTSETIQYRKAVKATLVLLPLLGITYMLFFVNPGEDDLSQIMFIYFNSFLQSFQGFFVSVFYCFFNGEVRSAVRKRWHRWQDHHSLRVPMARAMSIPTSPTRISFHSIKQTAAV
- Sequence (P24387 whole entry): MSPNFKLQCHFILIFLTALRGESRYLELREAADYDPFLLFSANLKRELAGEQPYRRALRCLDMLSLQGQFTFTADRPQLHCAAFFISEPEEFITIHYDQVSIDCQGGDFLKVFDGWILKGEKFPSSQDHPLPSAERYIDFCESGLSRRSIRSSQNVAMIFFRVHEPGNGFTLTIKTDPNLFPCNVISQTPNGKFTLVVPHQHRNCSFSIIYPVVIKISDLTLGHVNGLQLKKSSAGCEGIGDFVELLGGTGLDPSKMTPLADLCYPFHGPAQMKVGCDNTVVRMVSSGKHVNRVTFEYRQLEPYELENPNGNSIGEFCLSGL
- TEST_DETAILS: activators of CRF receptor 2 with binding protein – uHTS hits, confirmation (AID 602473)
- Assay type: functional
- CONDITIONS: read-out: EC50_Mean
Calls of active or inactive are those of the source. Rule as the data show it: actives have a measured EC50 and inactives only a lower limit.
Possible outcomes: y for active, n for inactive

>>> class_assignment("Oc1cc2ccccc2cc1-c1nnc(S)o1")
"n"
>>> class_assignment("CN(C)c1ccc(/C=C(/C#N)C(=O)Nc2nc3c(s2)CCN(Cc2ccccc2)C3)cc1")
"y"
>>> class_assignment("COc1ccc(S(=O)(=O)NNC(=O)c2csc(-n3nc(C)cc3C(F)(F)F)n2)cc1")
"n"
>>> class_assignment("CCn1ncc(C(=O)Nc2ccc([N+](=O)[O-])cc2OC)c1C")
"n"
>>> class_assignment("O=C(NCCCc1ccccc1)c1cccc([N+](=O)[O-])c1")
"n"
>>> class_assignment("O=C(Nc1nnc(-c2ccccc2)o1)c1cc(Cl)sc1Cl")
"n"
>>> class_assignment("COc1ccc(NC(=O)c2cc(C(=O)Nc3ccc(OC)cc3OC)cc([N+](=O)[O-])c2)c(OC)c1")
"n"
>>> class_assignment("CCCCn1c(N)c(N(CC(C)C)C(=O)Cc2ccc(S(=O)(=O)N3CCOCC3)s2)c(=O)[nH]c1=O")
"y"
>>> class_assignment("O=C(COC(=O)CC1c2ccccc2CCN1S(=O)(=O)c1ccc(F)cc1)Nc1ccccc1 (stereo not given)")
"n"
>>> class_assignment("Cc1nn(C(C)C(=O)O)c(=O)c2ccccc12 (stereo not given)")
"n"
>>> class_assignment("CCCC1(CCC)NC(=O)N(CC(=O)Nc2ccc(Cl)c(S(=O)(=O)N3CCOCC3)c2)C1=O")
"n"
>>> class_assignment("COc1ccc(Oc2ccc(C(F)(F)F)cc2NC(=O)c2ccc(OC)cc2)cc1")
"n"
>>> class_assignment("O=C(c1ccc(Br)cc1)N1CCN(c2ncccn2)CC1")
"n"
>>> class_assignment("O=c1c(Sc2ccccc2)c(C(F)(F)F)[nH]n1-c1ccccc1")
"n"
>>> class_assignment("CCCCc1nnc2c(N(C)S(=O)(=O)c3ccccc3)nc3ccccc3n12")
"n"
